EXPERIMENTAL_DETAILS: Pharmacokinetics of PL-100 and PL-461 in rats
Format: in vivo, Sprague Dawley rats (Rattus norvegicus)
CONDITIONS_USED: Sprague Dawley, rat, plasma, iv; 5 mg/kg i.v., female rats
Experimental: Animal tested are Sprague Dawley rats (species Rattus norvegicus) of 6-7 weeks old at the start of dosing and were obtained from Charles River (Montreal, Canada). The study usually comprises about 6 animals per groups. […] The rats were fasted 3 h. before dosing and 3 h. after dosing. The formulations are prepared as indicated below. […] Plasma samples together with standards and quality control samples were treated by protein precipitation and then analyzed by HPLC-MS. […]
ASSAY_METRIC: Cmax (ng/mL)
Just the number in ng/mL, nothing appended.

Reported Cmax of COC(=O)N[C@H](C(=O)NCCCC[C@@H](CO)N(CC(C)C)S(=O)(=O)c1ccc(N)cc1)C(c1ccccc1)c1ccccc1 [PL-100] : 1800

###

Tested on: 63 HIV isolates with reduced susceptibility to all approved protease inhibitors
Format: cell-based, HIV-1
CONDITIONS_USED: sample O4-148748; 37S/41K/70E; panel ID 115
ASSAY_METRIC: Fold change in IC50 vs. Reference
Reply: number alone, nothing else.

- COMPOUND: "COC(=O)N[C@H](C(=O)N[C@@H](Cc1ccccc1)[C@@H](O)CN(Cc1ccc(-c2ccccn2)cc1)NC(=O)[C@@H](NC(=O)OC)C(C)(C)C)C(C)(C)C [Atazanavir]"
  MEASUREMENT: 1.4
- COMPOUND: "CC(C)(C)NC(=O)[C@@H]1C[C@@H]2CCCC[C@@H]2CN1C[C@@H](O)[C@H](Cc1ccccc1)NC(=O)[C@H](CC(N)=O)NC(=O)c1ccc2ccccc2n1 [Saquinavir]"
  MEASUREMENT: 1.2
- COMPOUND: "Cc1cccc(C)c1OCC(=O)N[C@@H](Cc1ccccc1)[C@@H](O)C[C@H](Cc1ccccc1)NC(=O)[C@H](C(C)C)N1CCCNC1=O [Lopinavir]"
  MEASUREMENT: 1
- COMPOUND: "Cc1c(O)cccc1C(=O)N[C@@H](CSc1ccccc1)[C@H](O)CN1C[C@H]2CCCC[C@H]2C[C@H]1C(=O)NC(C)(C)C [Nelfinavir]"
  MEASUREMENT: 1.6

Next:
Reported Fold change in IC50 vs. Reference of COC(=O)N[C@H](C(=O)NCCCC[C@@H](CO)N(CC(C)C)S(=O)(=O)c1ccc(N)cc1)C(c1ccccc1)c1ccccc1 [PL-100] : 0.9

###

Tested on: laboratory adapted HIV strain (NL4-3)
EXPERIMENTAL_DETAILS: microbe, parasite or virus in culture
CONDITIONS_USED: ratio of cytotoxicity (CC50) to antiviral activity (EC50)
ASSAY_METRIC: SI (CC50/EC50)

- COMPOUND: "COC(=O)N[C@H](C(=O)NCCCC[C@@H](CO)N(CC(C)C)S(=O)(=O)c1ccc(N)cc1)C(c1ccccc1)c1ccccc1 [PL-100]"
  ASSAY_METRIC: "SI (CC50/EC50)"
  MEASUREMENT: "2,063"

Reported SI (CC50/EC50) of Cc1c(O)cccc1C(=O)N[C@@H](CSc1ccccc1)[C@H](O)CN1C[C@H]2CCCC[C@H]2C[C@H]1C(=O)NC(C)(C)C [Nelfinavir] : 276

Reported SI (CC50/EC50) of Cc1cccc(C)c1OCC(=O)N[C@@H](Cc1ccccc1)[C@@H](O)C[C@H](Cc1ccccc1)NC(=O)[C@H](C(C)C)N1CCCNC1=O [Lopinavir] : 1,474

Reported SI (CC50/EC50) of CC(C)(C)NC(=O)[C@@H]1C[C@@H]2CCCC[C@@H]2CN1C[C@@H](O)[C@H](Cc1ccccc1)NC(=O)[C@H](CC(N)=O)NC(=O)c1ccc2ccccc2n1 [Saquinavir] : 1,583

Reported SI (CC50/EC50) of COC(=O)N[C@H](C(=O)N[C@@H](Cc1ccccc1)[C@@H](O)CN(Cc1ccc(-c2ccccn2)cc1)NC(=O)[C@@H](NC(=O)OC)C(C)(C)C)C(C)(C)C [Atazanavir] : 13,750
